Tested on: Es-2
Assay: Primary qHTS to identify gynecologic anti-cancer compounds using libraries of approved drugs and bioactive compounds (AID 1345084); note: % is set by controls: 0 for no effect and ±100 for the full control effect; nearly all actives have a fitted effect of over 55% in size
Details: Gynecologic cancer cell panel viability, ATPlite luminescence, 48 h; series mostly up to 57.5 µM
Description: National Center for Advancing Translational Sciences [NCATS] Assay Overview: Chemotherapeutic drug responses vary from cancer to cancer and from patient to patient. […] ATPlite is a luminescence based assay reliant on the conversion of a luciferase substrate to light in the presence of ATP. As a cytotoxic compound will suppress growth and decrease the number of cells, the concentration of ATP will decrease, and less light signal will be detected in the well. […]
Results filed as inconclusive are left out. Activity calls are given as the source filed them. Calls come from the whole dose curve; as a rule, active = well fitted cell-killing curve with a large enough effect; inconclusive = small, poorly fitted or top-dose-only effect, or effect the other way; inactive = flat fitted curve, though single readings scatter.
READOUT KIND: activity change, negative = cytotoxicity

COc1cc(C(C)=O)ccc1O[C@@H]1O[C@H](CO)[C@@H](O)[C@H](O)[C@H]1O | inactive
COC(=O)[C@@H](NC(=O)[C@H](CC(C)C)NC(=O)N(Cc1ccccc1)C[C@@H](O)[C@H](Cc1ccccc1)NC(=O)OC(C)(C)C)C(C)C | 0.55% [at 11.6 µM] (inactive)
C[C@H](O)C(O)(C(=O)OCc1ccccc1NC(=O)CCC(N)C(=O)O)[C@H](C)O (stereo not given in full) | inactive
C=C1C(O)C(OC(=O)c2ccccc2)C2C(C)(C(=O)O)CCCC2(C)C1CC/C(C)=C\CO (stereo not given) | inactive
Cc1cc(O[C@@H]2O[C@H](COC(=O)CC(=O)O)[C@@H](O)[C@H](O)[C@H]2O)c(C(C)C)cc1O | inactive
C/C=C/C=C/C=C/C(=O)O[C@@H]1[C@@H](OC)C2=C(C(=O)N(C(CCC(=O)O)C(=O)O)C2)[C@@]2(C)CCCC(C)(C)[C@H]12 (stereo not given in full) | inactive
C=C(C(=O)O)C1CC(O)C2(C)CCCC(C)(O)C2C1 (stereo not given) | inactive
COc1cc(CCCO)ccc1O[C@@H]1O[C@H](CO)[C@@H](O)[C@H](O)[C@H]1O | inactive
C[C@@H]1O[C@@H](O[C@H]2[C@H](O[C@H]3[C@H](O[C@H]4CC[C@@]5(C)C(CC[C@]6(C)C5CC=C5[C@@H]7CC(C)(C)C[C@@H](O)[C@]7(C)CC[C@]56C)C4(C)C)O[C@H](C(=O)O)[C@@H](O)[C@@H]3O)O[C@H](C(=O)O)[C@H](O)[C@@H]2O)[C@H](O)[C@H](O)[C@H]1O (stereo not given in full) | -10.8% [at 11.6 µM] (inactive)

Here's the next entry for you.
Form field: activity change, negative = cytotoxicity recorded for CC(=O)OC1CC(=O)C2(C)C3CC4=C(OC(C)CC4=O)OC3(C)CCC2C1(C)C (stereo not given) with Es-2 (enter value)
inactive

----------
biological target: Phospholipid hydroperoxide glutathione peroxidase GPX4 (Homo sapiens) (UniProt P36969); test: Primary qHTS Assay for Inhibitors of Recombinant Selenoprotein Glutathione Peroxidase 4 (GPX4) (AID 1845192); conditions: recombinant GPX4, GR-coupled NADPH fluorescence, 15 min; series mostly up to 27.8 µM; note: % is set by controls: 0 for no effect and ±100 for the full control effect; nearly all actives have a fitted effect of over 65% in size
Sequence (P36969 whole entry, looked up): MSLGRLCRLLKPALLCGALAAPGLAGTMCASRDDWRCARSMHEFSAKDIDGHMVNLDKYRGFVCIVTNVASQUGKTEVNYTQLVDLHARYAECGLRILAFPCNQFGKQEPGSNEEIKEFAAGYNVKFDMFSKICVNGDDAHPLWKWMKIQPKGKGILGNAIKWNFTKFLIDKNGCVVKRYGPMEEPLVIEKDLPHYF
Results filed as inconclusive are left out. Calls of active or inactive are those of the source. The call rests on the fitted dose curve; in most records, active means well fitted inhibition curve with a large enough effect; inconclusive means small, poorly fitted or top-dose-only effect; inactive means flat fitted curve, though single readings scatter.
READOUT KIND: activity change, negative = inhibition

CC(C)c1ccc2c(c1)CCC1[C@](C)(C(=O)O)CCC[C@]21C (some centres undefined) | inactive
COc1cc(Nc2nc3ccccc3nc2NS(=O)(=O)c2cccc(NC(=O)c3ccc(C)c(OC)c3)c2)cc(OC)c1 | inactive
COc1cc(-c2ccc(O)cc2)c(OC)c(O)c1C1=CC(=O)OC1CC(=O)O (centres undefined) | inactive
Cc1cc(-c2nncc3c(C(C)(C)C)c(OCc4ncnn4C)nn23)no1 | inactive
